B1: mRNA-splicing (parent)
chain: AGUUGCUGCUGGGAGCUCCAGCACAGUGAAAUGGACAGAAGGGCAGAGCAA

variants of: B1; test: exon inclusion enrichment index; higher = more inclusion; WT1 exon 5 minigene, HEK293
// reported exon inclusion enrichment index per item
QUANTITY KIND: exon inclusion enrichment index

# VARIANT CODE, VALUE
records = [
    ("G5C C6G U7C G8A C9G U10C", 2.31),
    ("C6A U7C C9A U10C A37U G38U", 1.27),
    ("G5A C6U U7A G8U C9A A30C", 0.0649),
]
